assay: Human pharmacokinetics of eribulin; format: in vivo, humans; conditions: plasma, intravenous, 1.4 mg/m2

# compound, result_units, AUC
data = [
    ("C=C1C[C@@H]2CC[C@@]34C[C@H]5O[C@H]6[C@@H](O3)[C@H]3O[C@H](CC[C@@H]3O[C@H]6[C@H]5O4)CC(=O)C[C@@H]3[C@@H](OC)[C@@H](C[C@H](O)CN)O[C@H]3C[C@H]3O[C@@H](CC[C@@H]1O2)C[C@@H](C)C3=C", "ng·h/mL", 1580),
]

----------
assay: Tolerability in xenograft-bearing mice; type: in vivo; settings: NOD-SCID, mouse, in vivo, ip
recorded_metric: MTD at 6 weeks (mg/kg)

# compound, measured_number
measured = [
    ("C=C1C[C@@H]2CC[C@@]34C[C@H]5O[C@H]6[C@@H](O3)[C@H]3O[C@H](CC[C@@H]3O[C@H]6[C@H]5O4)CC(=O)C[C@@H]3[C@@H](OC)[C@@H](C[C@H](O)CN)O[C@H]3C[C@H]3O[C@@H](CC[C@@H]1O2)C[C@@H](C)C3=C", 1.5),
]
